# MEASUREMENT_DESCRIPTION: Catalase activity, conversion of H2O2 to oxygen, polarographic oxygen electrode (Example 2)
# Type: biochemical
# EXPERIMENTAL_SETUP: relative to C7 (C7 = 100)
Decision: Catalase endpt. beneath 80 gives 1 (yes); Catalase endpt. meeting or exceeding 80 gives 0 (no).

# count of solved cases: 4
# COMPOUND, CLASS_ASSIGNMENT
measured = [
    ("COc1cccc2c1[O][Mn]([O]C(C)=O)[O]c1c(cccc1OC)C=NC1CCCCC1N=C2 (centres unmarked)", "0 (no)"),
    ("[Cl][Mn]1[O]c2ccccc2CNCCNCc2ccccc2[O]1", "1 (yes)"),
    ("COc1cccc2c1[O][Mn]([O]C(C)=O)[O]c1c(cccc1OC)C=Nc1ccccc1N=C2", "0 (no)"),
    ("COc1cccc2c1[O][Mn]([Cl])[O]c1c(cccc1OC)C=NCCN=C2", "0 (no)"),
]

input: State whether 80 exceeds Catalase endpt. recorded for CCOc1cccc2c1[O][Mn]([O]C(C)=O)[O]c1c(cccc1OCC)C=NCCN=C2 .
output: 0 (no)

input: Also need COc1cccc2c1[O][Mn]([Cl])[O]c1c(cccc1OC)C=Nc1ccccc1N=C2 , thanks.
output: 0 (no)

input: Also need CC(=O)[O][Mn]1[O]c2ccccc2C=NCC(C)(C)CN=Cc2ccccc2[O]1 , thanks.
output: 1 (yes)
